target: α-glucosidase; assay: α-glucosidase activity assay (colorimetric kit); assay type: biochemical; conditions: IC50 ± SD, n = 5; acarbose as standard drug
pIC50: −log10 of the molar value.
Measurement type: pIC50

1. COc1cc(NNC(=S)Nc2cccc(F)c2)nc(N)n1 :: 4.92
2. COc1cc(NNC(=S)Nc2cccc([N+](=O)[O-])c2)nc(N)n1 :: 4.66
3. COc1cc(NNC(=S)Nc2cccc(C#N)c2)nc(N)n1 :: 4.37
4. COc1cc(NNC(=S)Nc2ccc(C)cc2)nc(N)n1 :: 4.44
5. COc1cc(NNC(=S)Nc2cccc(Br)c2)nc(N)n1 :: 4.72
6. COc1cc(NNC(=S)Nc2cccc(Cl)c2)nc(N)n1 :: 4.79
7. COc1cccc(NC(=S)NNc2cc(OC)nc(N)n2)c1 :: 4.52
